// provenance: PubChem BioAssay AID977614

AC50 values, listed per item
System: L. donovani amastigotes in THP-1 macrophages, DAPI imaging, 72 h
Test: L. donovani intracellular amastigote growth inhibitors, imaging, THP-1 host macrophages, single concentration (AID 977614);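 further: signal is the parasite per host cell ratio from DAPI stained kinetoplasts and nuclei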
Activity calls are given as the source filed them.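 How the source made its calls: active means parasite count per well reduced by over 3 SD from the mean, with host cell number above 80% of untreated; inactive means the rest.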

Use these answered entries as a reference point.
CC(=O)N1[C@H](CO)[C@@H](c2ccc(C3=CCCCC3)cc2)[C@@H]1CNC(=O)CN(C)C = > 10 µM (inactive)
CCN(C[C@H]1[C@H](c2ccccc2)[C@@H](CO)N1CC1CC1)C(=O)c1ccccn1 = > 10 µM (inactive)
CCN(C[C@@H]1[C@@H](c2ccccc2)[C@H](CO)N1C(C)=O)C(=O)NC1CCCC1 = > 10 µM (inactive)
CN1C[C@H]2[C@@H](c3ccccc31)[C@@H](CO)N2Cc1ccccc1Cl = > 10 µM (inactive)
CN1[C@@H](CO)[C@@H]2c3ccccc3N(C(=O)Nc3cc(F)ccc3F)C[C@@H]21 = > 10 µM (inactive)

Fill blank: measured AC50 of the compound CN1C[C@H]2[C@@H](c3ccccc31)[C@H](CO)N2Cc1ccccc1Cl is ____.
> 10 µM (inactive)

So what's the measured AC50 for this one? C[C@@H]1CN([C@@H](C)CO)C(=O)CCCn2nncc2CO[C@@H]1CN(C)C(=O)Oc1cccc2ccccc12
> 10 µM (inactive)

AC50 lookup needed for C[C@H]1CN([C@@H](C)CO)C(=O)CCCn2nncc2CO[C@H]1CN(C)C(=O)c1ccc2ccn(C)c2c1 , thanks.
> 10 µM (inactive)

Data request, read-out AC50, for Cc1noc(C)c1NC(=O)N(C)C[C@@H]1OCc2cn(nn2)CCCC(=O)N([C@H](C)CO)C[C@H]1C
> 10 µM (inactive)

Which measured AC50 value corresponds to C/C=C/c1ccc([C@H]2[C@@H](CO)N(C(=O)CC)[C@@H]2CN(C(=O)C2CC2)C(C)C)cc1 ?
> 10 µM (inactive)

###

We begin with a simple list: items and their reported AC50.
Test system: L. donovani amastigotes in THP-1 macrophages, DAPI imaging, 72 h
Assay: L. donovani intracellular amastigote growth inhibitors, imaging, THP-1 host macrophages, single concentration (AID 977614);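 further: signal is the parasite per host cell ratio from DAPI stained kinetoplasts and nuclei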
Activity calls are given as the source filed them.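 The calls were made as follows: active = parasite count per well reduced by over 3 SD from the mean, with host cell number above 80% of untreated; inactive = the rest.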

C[C@@H]1CN([C@@H](C)CO)C(=O)CCCn2nncc2CO[C@H]1CN(C)Cc1cccc2c1OCCCO2 = > 10 µM (inactive)
O=C(C1CC1)N1C[C@@H]2[C@H](c3ccccc31)[C@@H](CO)N2C(=O)c1ccccc1 = > 10 µM (inactive)
COc1ccccc1C(=O)N1C[C@H]2[C@@H](c3ccccc31)[C@@H](CO)N2CC1CCCC1 = > 10 µM (inactive)

Report AC50 for C/C=C/c1ccc([C@H]2[C@@H](CO)N[C@@H]2CN(Cc2cccnc2)C(=O)C2CC2)cc1 tested on L. donovani amastigotes in THP-1 macrophages, DAPI imaging, 72 h.
> 10 µM (inactive)
